target: major capsid protein (p24) of HIV-1 (HIV-1, UniProt P04591); test: cell-based or functional assay
Ends that are not written are not given here.
// reverse transcriptase (RT) activity in the supernatants, Day 10 RT (OD) lookup, one value per entry
Write the answer as a number in OD, unit excluded.

| BINDER | UNIT ABBREVIATION | READOUT VALUE |
| --- | --- | --- |
| Gly-Lys-Gly-NH2 [Gly-Lys-Gly-NH2] | OD | 0.074 |
| Leu-Lys-Ala-NH2 [LKA-NH2] | OD | 2.43 |
| Gly-His-Lys-NH2 [GHK-NH2] | OD | 2.15 |
| Cys-Gln-Gly-NH2 [Cys-Gln-Gly-NH2] | OD | 0.108 |
| Ala-Arg-Val-NH2 [ARV-NH2] | OD | 1.53 |
| Lys-Ala-Arg-NH2 [KAR-NH2] | OD | 2.78 |

Data request: Identify reverse transcriptase (RT) activity in the supernatants, Day 10 RT (OD) associated with the binder Ala-Cys-Gln-NH2 [ACQ-NH2]
Data returned: 0.904
